The measurements presented in this section are drawn from PubChem BioAssay AID330.

We begin with a simple list: items and their reported T/C.
System: P388 leukemia ip, CD2F1 mice, survival T/C
Experimental details: NCI In Vivo Anticancer Drug Screen. Data for tumor model P388 Leukemia (intraperitoneal) in CD2F1 (CDF1) mice
Assay setup: endpoint: median survival time; dose: 50.0 mg/kg/injection; schedule: Q01DX005 (ip); vehicle: saline with Tween-80; higher = longer survival
Toxic doses and inconclusive results are not listed.

C#Cc1cccc(N=Cc2cc(Cl)cc(Cl)c2O)c1 : 102 % of control

Query `O=C1C=CC(=O)N1C(=O)NC(NC(=O)N1C(=O)C=CC1=O)c1cccc2ccccc12` yields T/C of 100 % of control

For this compound ( `Cn1c2ccc(Cl)cc2c2oc(-c3nn[nH]n3)cc(=O)c21` ), measured T/C is 102 % of control

Per the records, this compound ( `CCN(CC)c1ccc(/C=N\NC(=O)C(=O)N/N=C\c2ccc(N(CC)CC)cc2)cc1` ) has T/C equal to 87 % of control

# compound CCOC(=O)CC1CC(C)(C(=O)OCC)C(=O)CC1=O (stereo unspecified) ; its T/C = 102 % of control

For record `Cc1cc2nc3ccc(N(C)C)cc3nc2cc1N` the listed T/C is 95 % of control
